Source: ChEMBL document CHEMBL1152860

- System: EKVX
- PROTOCOL SUMMARY: Growth inhibition of human EKVX cells after 48 hrs by SRB assay
- Format: functional
ASSAY READOUT: GI50

Consider the worked cases shown below.
In [3]: df
Out[3]:
                        structure_as_smiles  target_under_test  assay_readout  observed
0  O=C(Nc1cc(C(F)(F)F)ccc1F)Nc1n[nH]c2ccccc12               EKVX           GI50  > 100 µM
1  O=C(Nc1ccc(Cc2ccccc2)cc1)Nc1nn(C(=O)Nc2ccc(Cc3ccccc3)cc2)c2ccccc12               EKVX           GI50  > 100 µM

Query molecule follows.
Name the value of GI50 reported for `COc1ccc(NC(=O)Nc2n[nH]c3ccccc23)cc1` when tested on EKVX.
> 100 µM
